test.details: yeast display, Sf9 membrane polyspecificity reagent, FACS + sequencing; frameworks hold sequencing errors
measurement.label: polyreactivity (PSR sort gate)

[
  {
    "residues": "QVQLVESGGRLVQAGGSLRLSCAPSGFIFRFNAMGWYRQPPGKVSELVARIDWSGGSTYYADSVKGRFTISRENAKYTVYFQMNSLKPEDTAVYYCAAERYFEYSECDYWGQGTQVTVSS",
    "measurement.label": "polyreactivity (PSR sort gate)",
    "result": "low polyreactivity"
  },
  {
    "residues": "QVQPVESGGGLDQAGGSLRLSCAASGRILWSYAMGWYRQAPGKERELVAAIRTSGGSTYYADSVKGRFTISRDNAKNTVYLQMNSLKPEDTAVYYCAADRTLFSTVDYWGQGTQVTVSS",
    "measurement.label": "polyreactivity (PSR sort gate)",
    "result": "low polyreactivity"
  },
  {
    "residues": "QVQLVESGGGLVQAGGSLRLSCAASGFTFNYYAMGWYRQAPGKEREFVAAISRSAGSTYYADSVKGRFTISRDNAKNTVYLQMNSLKPEDTAVYYCAADPRSKGFYYGYDYWGQGTQVTVSS",
    "measurement.label": "polyreactivity (PSR sort gate)",
    "result": "high polyreactivity"
  },
  {
    "residues": "QVQLVESGGGLVQAGGSLRLSCAASGITFRHYAMGWYRQAPGKEREFVAAITASGSSTYYADSVKGRFTISRDTAKNTVYLQMNSLKPEDTAVYYCAAAGYKYNSRGDYWGPGTQVTVSS",
    "measurement.label": "polyreactivity (PSR sort gate)",
    "result": "high polyreactivity"
  }
]

###

test.details: yeast display, Sf9 membrane polyspecificity reagent, FACS + sequencing; frameworks hold sequencing errors

[
  {
    "residues": "QVQLVESGGGLVQAGGSLRLSCAASGSIFTDNVMGWYRQAPGKERELVAAITYSAASTYYADSVKGRFTISRDNAKNTVYLQMNSLKPEDTAVYYCATEYYIGVNYRGDYWGQGTQVTVSS",
    "polyreactivity (PSR sort gate)": "low polyreactivity"
  },
  {
    "residues": "QVQLVESGGGLVQAGGSLRLSCAASGSTFTFYTMGWYRQAPGKERELVAAITISAGSTYYADSVKGRFTFSRDNAKNTVYLQMNSLKPEDSAVYYCAADTYAHWGYYGSYYRDDYWGQGTQVTVSS",
    "polyreactivity (PSR sort gate)": "low polyreactivity"
  }
]

###

test.details: yeast display, Sf9 membrane polyspecificity reagent, FACS + sequencing; frameworks hold sequencing errors
measurement.label: polyreactivity (PSR sort gate)

See these solved cases before continuing.
[
  {
    "residues": "QVQLVESGGRLVQAGGSLRLSCAASGNIFYYYAMGCYTQAHGKERELVAAISADCGRTYYADSVKGRFTISRDTAKNTVYLQMNSLQPEDTAVYYWNVLGRARTQTRYNYWGQGTQVTVSS",
    "result": "high polyreactivity"
  },
  {
    "residues": "QVQLVESGGGLVQAGGSLRLSCAASGSTCYKYAMGWYRKAPGKERELVAVITKSGGSTYYADSVKGRFTISRDNAKNPVYLQMNSLTPEDTAVYYCGTVQSGRVRTYDYCGQGTQVTVSS",
    "result": "high polyreactivity"
  },
  {
    "residues": "QVQLVESGGGIVQAVGSLRLSCAASGFTFFYYAMGWYRQAPGKERELVATISWNGGTTYYADSVKGRFTISRDNAKNTVYLQMNSLKPEDTAVYYCNARYDWTYLYDAGLVPGWDYDYWGQGTQLTVSS",
    "result": "low polyreactivity"
  },
  {
    "residues": "QVQLVESGGGLVQAGGSLRLSCASSGSIFYNNAMGWYRQAPGKERELVAAIRSTGTRTYYSDSVKGRFTISRDTAKNTVYLQMNSLKPEDTAVYYCAVGDYGLWSYDYWGQGTQVTVSA",
    "result": "low polyreactivity"
  },
  {
    "residues": "QVQLVESGGGLVQAGGSLRLSCAASGSTFYAYAMGWYRQAPGKERELVAAIDSGGSTYYADSVKGRFTISRDNAKNTVYLQMNSLKPEDTAVYYCAVRHRYTRAYWGRVYWGQGTQVTVSS",
    "result": "low polyreactivity"
  },
  {
    "residues": "QVQLVESGGGLVQAGGSLRLSCAASGLIFYSYAMGWYRQAPGKERELVAAITGGGSTNYADSVKGRFTISRDNAKNTVYLQMNSLKPEDTAVYYCAAAFTLRKYDYWGQGTQVTVSS",
    "result": "low polyreactivity"
  }
]

# map each sequence to its polyreactivity (PSR sort gate)
1. QVQHVESGGGLVQAGGSLRLSCAASGSTFNSYDKGSYRQAPGKERELVAAISSSAASTYYADSVKGRFTISRDNAKKTGYLQMNSLKPEDTAVYYCAAYVYYTYPSCTVYSVSYIYDYWAQGTQVTVSS
2. QVQLVESGGGLVQAGGSLRLSCAASGGIFKYNAMGWYRQAPGKERELVAAIDTSGGSTYYADSVKGRFTISRDNAKNTVYLQMNSLKPEDTAVYYCAAELGLAQYYYWGQGTQVTVSS

["low polyreactivity", "low polyreactivity"]

###

test.details: yeast display, Sf9 membrane polyspecificity reagent, FACS + sequencing; frameworks hold sequencing errors
measurement.label: polyreactivity (PSR sort gate)

See these solved cases before continuing.
[
  {
    "residues": "QVQLVESGGGLVQAGGSLSLSCAASGSTFTEYAMGWDRQAPGKERELVAGISSDGSTKYADSVKGRFTISRDNAMNTVYLQMNSLKTEDTAVYYCYIVQSYAKYDYWGQGTQVTVSS",
    "polyreactivity (PSR sort gate)": "low polyreactivity"
  },
  {
    "residues": "QVQLVESGGGLVQAGGSLRLICAASGITFDDYDMGWYRQAPGKEREFVSAISFSGSSTYYADSVKGRFTISRDKAKNTVYLQMNSLKPEDTAVYYCNADYVYSGGRYFGKDYWFDYWGQGTQVTVSS",
    "polyreactivity (PSR sort gate)": "low polyreactivity"
  },
  {
    "residues": "QVQLVESGGGLVQAGGSLRLSCAASGITSGNNAMGWYRQAPGKERELVAAISWTGGSTYYADSVKGRFTISRDNAKNTVYLEMNSLKPEDTAVYYCAAGGWDPFTEQHYEYWGQGTQVTVSS",
    "polyreactivity (PSR sort gate)": "low polyreactivity"
  },
  {
    "residues": "QVQLVESGGGLVQAGGTLRLSCAASGYTLKWYTMGWYRQAPGKERELVATIRRGGGTYYADSVKGRFTISRDNAKNTVYLQMNSLKPVDTPVYYCAAEWSSVYNYDYWGQGTQVTVSS",
    "polyreactivity (PSR sort gate)": "low polyreactivity"
  },
  {
    "residues": "QVQLVESGGGLVQAGGSLRLSCAASGRTIGYNAMGWYRQAPGKERELVAAITRSAGITYYADSVKGRFTISRDNAKNTVYLQLNSLKPEDTAVYYCNKRVVYRSSLFDYWGQGTQVTVSS",
    "polyreactivity (PSR sort gate)": "low polyreactivity"
  },
  {
    "residues": "QVQLVESGGGLVQAGGSLRLSCAASGFIFYRYALGWYRQAPGKERELVAAISRSGGSTYYADSVKVRFTISRDNAKNTVYLQMNSLKPEDTAVYYCAVTGYWYYHDHYSYPSRYYYWGQGTQVTVSS",
    "polyreactivity (PSR sort gate)": "high polyreactivity"
  },
  {
    "residues": "QLQLVESGGGLVKAGGSLRLSCAASGSTFGGNAMGWYRQAPGKERELVASISSSGGRTYYADSVKGRFTISRDNAKNTVYLQMNSLTPEDTAVYYCARRYYYQYRYDYWGQGTQVTVSS",
    "polyreactivity (PSR sort gate)": "high polyreactivity"
  },
  {
    "residues": "QVQHVESVGRLVQAGGSLLLSCAASGSTFWIYAMGWKRQAPVKERELVAAISWRGGRTYYADSVKGRFTISRDNAKNTVYLQMYSLKPEDTGVYYCNAQKRDVSMGYWGLGTQVTVSS",
    "polyreactivity (PSR sort gate)": "high polyreactivity"
  }
]

# map each sequence to its polyreactivity (PSR sort gate)
1. QVQLVESGGGLVQAGGSLRLSCAASGRILGYYGMGWYIQAPGKERELVAAITSGGGSTYYADSVKGRFTISRDNAKNTVYLQMNSLKPEDTAVYYCNAVPSQHDEFDYWGQGTQVTVSS
2. QVQLVESGGGLVQAGGSLRLSCAASGSTSVVNAMGWYRQAPGKERELVATITRSAGRTYYADSVKGRFTISRDNAKNTVYLQMNSLKPEDTAVSYCAKDTDISTHHSKGRAKSRYDYWGQGTQVTVSS
3. QVQLVESGGGLVQAGGSLRLSCAASGSTFLDYAMGWYRQAPGKERELVAAITSGGSTYYADSVKGRFTISRDNAKNTVYLQMNSLKPEDTAVYYCAAEQTQLYSFGWDEYWGQGTQVTVSS

low polyreactivity
low polyreactivity
low polyreactivity
